Test system: NCI-H196 complex spheroids with HUVEC/MSC, growth % T/C
protocol-notes: Anticancer human tumor NCI-H196 cell line growth inhibition [Asc];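 note: spheroids exposed to compound for 7 days before measurement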
condition-parameters: curve of first compound; second compound 1 µM
pIC50: −log10 of the molar value.
For each entry below, report its pIC50 value.

Requested read-out: pIC50. Entry: CCN1CCN(Cc2ccc(Nc3ncc(F)c(-c4cc(F)c5nc(C)n(C(C)C)c5c4)n3)nc2)CC1 + Cc1c(S(C)(=O)=O)c(-c2cc(F)cc(N3CCN(c4ccc(NS(=O)(=O)c5ccc(NC(CCN6CCC(C(=O)OCCCP(=O)(O)O)CC6)CSc6ccccc6)c(S(=O)(=O)C(F)(F)F)c5)cc4)CC3)c2)c(-c2ccc(Cl)cc2)n1C(C)C < 6.00

Moving on to the next compound: O=C(c1ccc(F)c(F)c1Nc1ccc(I)cc1F)N1CC(O)([C@@H]2CCCCN2)C1 + CNC(C)C(=O)NC1CN(S(=O)(=O)c2cccc(S(=O)(=O)N3CCC4CCC(C(=O)NC(c5ccccc5)c5ccccc5)N4C(=O)C(NC(=O)C(C)NC)C3)c2)CCC2CCC(C(=O)NC(c3ccccc3)c3ccccc3)N2C1=O > 8.50

How about NC(=O)C(=Cn1cnc(-c2cc(C(F)(F)F)cc(C(F)(F)F)c2)n1)c1cncnc1 + Cc1c(S(C)(=O)=O)c(-c2cc(F)cc(N3CCN(c4ccc(NS(=O)(=O)c5ccc(NC(CCN6CCC(C(=O)OCCCP(=O)(O)O)CC6)CSc6ccccc6)c(S(=O)(=O)C(F)(F)F)c5)cc4)CC3)c2)c(-c2ccc(Cl)cc2)n1C(C)C ? 7.67

---

System: NCI-H196 complex spheroids with HUVEC/MSC, growth % T/C
protocol-notes: Anticancer human tumor NCI-H196 cell line growth inhibition [Asc];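 note: spheroids exposed to compound for 7 days before measurement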;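 for viability, T/C: 100% = DMSO vehicle control wells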
condition-parameters: second compound 0.949 µM; first compound 0.0316 µM; stronger effect = lower value
Source text: Multicellular complex tumor spheroid response to apoptosis pathway targeting inhibitors Alrizomadlin, Pelcitoclax, and Dasminapant in combination with a variety of drugs and investigational agents in selected tumor cell lines […] Compounds. […] If the clinical Cmax for an agent had not been determined, the highest concentration tested was 10 microM. […]
quantity-kind: viability, T/C (%)
Give just the number in %; leave the unit off.

I would be grateful if you could share the reported viability, T/C for C=C(F)C(=O)N1CCN(c2nc(OCC3CCCN3C)nc3c2CCN(c2cccc4cccc(Cl)c24)C3)CC1CC#N (centres undefined) + CCN1C(C(=O)NC23CCC(C(=O)O)(CC2)CC3)C(c2cccc(Cl)c2F)C2(C(=O)Nc3cc(Cl)ccc32)C12CCCCC2 . 115

CCN1CCN(Cc2ccc(Nc3ncc(F)c(-c4cc(F)c5nc(C)n(C(C)C)c5c4)n3)nc2)CC1 + CCN1C(C(=O)NC23CCC(C(=O)O)(CC2)CC3)C(c2cccc(Cl)c2F)C2(C(=O)Nc3cc(Cl)ccc32)C12CCCCC2 ? 123

Entry to check: NC1CCC(NC2CC2c2ccccc2)CC1 (centres undefined) + CCN1C(C(=O)NC23CCC(C(=O)O)(CC2)CC3)C(c2cccc(Cl)c2F)C2(C(=O)Nc3cc(Cl)ccc32)C12CCCCC2 115

Repeat for the following molecule: Cn1ncnc1[C@H]1c2n[nH]c(=O)c3cc(F)cc(c23)N[C@@H]1c1ccc(F)cc1 + CCN1C(C(=O)NC23CCC(C(=O)O)(CC2)CC3)C(c2cccc(Cl)c2F)C2(C(=O)Nc3cc(Cl)ccc32)C12CCCCC2 112
